Each entry below lists one item and its recorded LD50 value.
experimental.details: in vivo
applied.conditions: mouse, ip, NMRI male mice, suspended in Tween 80 at 1% plus CMC at 2% in physiological serum, read-out: LD 50 mg/kg. i.p. NMRI mouse
Numeric only. Scale: mg/kg

compound="CC(C)Cc1ccc(C(C)C(=O)NC(=O)NCN2CCOCC2)cc1 (centres unmarked) [ITA-376]" quantity_unit=mg/kg measurement=1800
compound="CC(C)(Oc1ccc(C(=O)c2ccc(Cl)cc2)cc1)C(=O)NC(=O)NCN1CCOCC1 [ITA-375]" quantity_unit=mg/kg measurement=950
compound="O=C(NCN1CCOCC1)NC(=O)C(Oc1ccc(Cl)cc1)Oc1ccc(Cl)cc1 [ITA-373]" quantity_unit=mg/kg measurement=1700
compound="O=C(NCN1CCOCC1)NC(=O)c1cccnc1 [ITA-378, N-nicotinoil-N'-morpholino methylurea]" quantity_unit=mg/kg measurement=1700

Okay, now this compound:
Exercise: For the compound COc1ccccc1C(=O)NC(=O)NCN1CCOCC1 [ITA-418] , report LD50.
Key: 1100
